- Tested on: HIV-1 integrase (with human LEDGF/p75)
- protocolDetails: blockers of LEDGF/p75-dependent integrase strand transfer – biochemical, TR-FRET, high throughput, primary screen (AID 743269);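 also: signal is the Cy5 over europium emission ratio at 671 and 618 nm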
- conditions: TR-FRET IN-LEDGF/p75 DNA integration, Eu/Cy5; at 3.7 µM
The whole screen tested about 370,000 compounds, of which about 2,400 (0.65%) were called active.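 The calls were made as follows: active = inhibition above the screen-wide mean plus 3 SD (cut at about 13% in these data); inactive = the rest.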 For the sample, actives were picked, then their nearest neighbours and some compounds at random.
Bench note: report the call from True for active, False for inactive

compound=COc1ccc(C(=O)CSc2nnc(-c3cnccn3)n2-c2ccc(C)cc2)cc1 targetofassay="HIV-1 integrase (with human LEDGF/p75)" answerlabel=False
compound="Cc1ccc(C(=O)OC(C)CN2CCOCC2)cc1 (stereo not drawn)" targetofassay="HIV-1 integrase (with human LEDGF/p75)" answerlabel=True
compound="Cc1ccc(S(=O)(=O)N(C)C)cc1NC(=O)COC(=O)C1COc2ccccc2O1 (stereo not drawn)" targetofassay="HIV-1 integrase (with human LEDGF/p75)" answerlabel=False

Ask: Returns: the outcome recorded for CC(=O)c1ccccc1NC(=O)COC(=O)C1COc2ccccc2O1 (stereo not drawn) in this assay.
Result: False

Ask: Returns: the outcome recorded for "CCOC(=O)[C@]12CCCC=C1N(Cc1ccc(OC)cc1)C(=O)[C@@H]2CC(=O)N1CCOCC1" in this assay.
Result: False

Ask: Returns: the outcome recorded for "O=C(CSc1nc2ccccc2n1Cc1ccccc1)NNC(=S)Nc1ccccc1" in this assay.
Result: False

Ask: Returns: the outcome recorded for CCOCCOC(=O)C1=C(C)N(C)C(=O)NC1c1ccccc1F (stereo not drawn) in this assay.
Result: False

Ask: Returns: the outcome recorded for O=C(NC1CCCCN(Cc2ccc(Cl)cc2)C1=O)c1ccc(Br)cc1 (stereo not drawn) in this assay.
Result: False
